Sourced from patent US20250361241A1

- MEASURED_ON: GLK (Homo sapiens (Human))
- Sequence (Q8IVH8 whole entry, species assumed): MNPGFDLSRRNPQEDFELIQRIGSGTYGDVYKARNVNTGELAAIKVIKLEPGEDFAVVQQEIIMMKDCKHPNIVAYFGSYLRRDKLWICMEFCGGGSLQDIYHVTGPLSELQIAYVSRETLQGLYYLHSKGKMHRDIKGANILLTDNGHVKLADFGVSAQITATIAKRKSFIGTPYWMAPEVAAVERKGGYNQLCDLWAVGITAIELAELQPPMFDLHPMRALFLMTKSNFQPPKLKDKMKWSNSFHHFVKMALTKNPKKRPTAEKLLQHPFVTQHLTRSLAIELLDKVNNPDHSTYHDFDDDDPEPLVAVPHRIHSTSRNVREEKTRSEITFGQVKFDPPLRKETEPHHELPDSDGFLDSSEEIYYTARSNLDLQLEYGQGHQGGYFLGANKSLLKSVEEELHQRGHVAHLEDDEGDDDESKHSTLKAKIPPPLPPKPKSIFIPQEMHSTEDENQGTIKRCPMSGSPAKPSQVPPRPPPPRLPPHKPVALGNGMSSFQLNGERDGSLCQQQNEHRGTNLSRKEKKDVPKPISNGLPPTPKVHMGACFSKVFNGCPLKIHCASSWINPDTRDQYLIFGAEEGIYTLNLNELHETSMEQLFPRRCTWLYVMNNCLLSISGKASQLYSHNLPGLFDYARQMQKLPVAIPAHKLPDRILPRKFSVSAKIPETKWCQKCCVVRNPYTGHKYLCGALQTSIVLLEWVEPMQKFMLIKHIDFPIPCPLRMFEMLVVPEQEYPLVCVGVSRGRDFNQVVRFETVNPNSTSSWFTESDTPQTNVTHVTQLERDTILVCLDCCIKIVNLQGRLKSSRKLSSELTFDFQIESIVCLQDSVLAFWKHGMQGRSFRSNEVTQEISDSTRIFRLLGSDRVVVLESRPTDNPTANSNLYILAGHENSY
Give pIC50 for every item shown.
Numbers only, as −log10 of the molar value.

Consider the worked cases shown below.
O=C1NCc2c(-c3cnc4cc(F)ccn34)ccc(Nc3ccc4c(n3)C(N3CCC3)CC43CCOCC3)c21 (stereo not shown)
7.05
O=C1NCc2c(-c3cnc4cc(F)ccn34)ccc(Nc3ccc4c(n3)C(N3CC[C@H](F)C3)CC43CCOCC3)c21 (stereo partly shown)
6.56
CN(C)C1CC2(CCOC2)c2ccc(Nc3ccc(-c4cnc5cc(Cl)ccn45)c4c3C(=O)NC4)nc21 (stereo not shown)
6.01
Cc1cc(Nc2ccc(-c3cnn4ccccc34)c3c2C(=O)NC3)nc2c1C1(CCOCC1)C[C@H]2N(C)C
8.06
Cc1cc(Nc2ccc(-c3cnc4ccccn34)c3c2C(=O)NC3)nc2c1C1(CCOCC1)C[C@H]2N(C)C
7.52

Below is a list of compounds. For each, state its recorded pIC50.
1. CN(C)C1CC2(CCOCC2)c2ccc(Nc3ccc(-c4cnc5cc(C#N)ccn45)c4c3C(=O)NC4)nc21 (stereo not shown)
2. O=C1NCc2c(-c3cnc4cc(F)ccn34)ccc(Nc3ccc4c(n3)C(N3CC[C@@H](F)C3)CC43CCOCC3)c21 (stereo partly shown)

a:
1. 6.06
2. 6.53
